Target: SAMHD1_114–626 (HD domain construct of SAMHD1) (Homo sapiens, UniProt Q9Y3Z3, C522S)
Construct: HD domain construct, residues 114-626, bacterial expression; nucleotide-dependent homotetramer; 10 cysteines
Sequence (Q9Y3Z3 114-626 C522S): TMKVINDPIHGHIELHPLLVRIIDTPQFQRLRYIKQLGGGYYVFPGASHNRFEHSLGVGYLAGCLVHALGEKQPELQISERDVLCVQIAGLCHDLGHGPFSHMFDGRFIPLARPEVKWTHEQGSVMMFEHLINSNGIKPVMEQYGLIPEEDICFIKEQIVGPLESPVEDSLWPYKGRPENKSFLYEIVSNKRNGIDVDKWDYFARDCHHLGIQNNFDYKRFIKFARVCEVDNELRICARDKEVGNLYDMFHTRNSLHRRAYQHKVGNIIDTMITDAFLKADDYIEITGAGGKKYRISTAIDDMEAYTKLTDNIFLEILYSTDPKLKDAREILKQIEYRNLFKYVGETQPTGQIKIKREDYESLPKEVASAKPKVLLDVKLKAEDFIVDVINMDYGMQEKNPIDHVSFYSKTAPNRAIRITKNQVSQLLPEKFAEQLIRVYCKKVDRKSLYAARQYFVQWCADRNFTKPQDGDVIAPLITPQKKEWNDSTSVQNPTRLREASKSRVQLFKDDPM
Assay: NMR-based dNTPase assay, activation by GTP
Measure Name: EC50

For reference, reported EC50 for Nc1nc2c(ncn2[C@@H]2O[C@H](COP(=O)(O)OP(=O)(O)OP(=O)(O)O)[C@@H](O)[C@H]2O)c(=O)[nH]1 stands at 4.8 µM

* * *

Target: SAMHD1_114–626 (HD domain construct of SAMHD1) (Homo sapiens, UniProt Q9Y3Z3, C350S)
Construct: HD domain construct, residues 114-626, bacterial expression; nucleotide-dependent homotetramer; 10 cysteines
Sequence (Q9Y3Z3 114-626 C350S): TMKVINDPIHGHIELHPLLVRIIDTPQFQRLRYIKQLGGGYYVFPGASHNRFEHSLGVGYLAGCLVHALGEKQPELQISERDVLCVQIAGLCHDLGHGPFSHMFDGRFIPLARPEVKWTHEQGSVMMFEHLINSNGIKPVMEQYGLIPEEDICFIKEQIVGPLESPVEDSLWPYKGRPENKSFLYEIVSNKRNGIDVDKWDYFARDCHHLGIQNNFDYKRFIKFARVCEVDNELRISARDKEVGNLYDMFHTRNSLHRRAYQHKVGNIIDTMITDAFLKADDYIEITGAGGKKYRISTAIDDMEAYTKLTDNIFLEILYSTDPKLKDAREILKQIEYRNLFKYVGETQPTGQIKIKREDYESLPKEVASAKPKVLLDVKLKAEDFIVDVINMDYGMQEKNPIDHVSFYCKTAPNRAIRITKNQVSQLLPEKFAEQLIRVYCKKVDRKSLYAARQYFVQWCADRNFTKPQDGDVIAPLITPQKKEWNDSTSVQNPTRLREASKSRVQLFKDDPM
Assay: NMR-based dNTPase assay, activation by GTP
Format: biochemical
Measure Name: EC50 (µM)
Write it as a number; the unit µM goes unstated.

For reference, reported EC50 for Nc1nc2c(ncn2[C@@H]2O[C@H](COP(=O)(O)OP(=O)(O)OP(=O)(O)O)[C@@H](O)[C@H]2O)c(=O)[nH]1 [GTP] stands at 8.1

* * *

Biological target: SAMHD1_114–626 (HD domain construct of SAMHD1) (Homo sapiens, UniProt Q9Y3Z3)
Construct: HD domain construct, residues 114-626, bacterial expression; nucleotide-dependent homotetramer; 10 cysteines
Sequence (Q9Y3Z3 114-626): as the sequence (Q9Y3Z3 114-626 C350S) above, with S237C counted along it
Assay: NMR-based dNTPase assay, activation by GTP
Measure Name: pEC50
Remember the convention: pEC50 equals -log10 of concentration in molar.

Item: Nc1nc2c(ncn2[C@@H]2O[C@H](COP(=O)(O)OP(=O)(O)OP(=O)(O)O)[C@@H](O)[C@H]2O)c(=O)[nH]1 | System: SAMHD1_114–626 (HD domain construct of SAMHD1) (Homo sapiens, UniProt Q9Y3Z3) | pEC50: 5.41

* * *

Biological target: SAMHD1_114–626 (HD domain construct of SAMHD1) (Homo sapiens, UniProt Q9Y3Z3, C341S)
Construct: HD domain construct, residues 114-626, bacterial expression; nucleotide-dependent homotetramer; 10 cysteines
Sequence (Q9Y3Z3 114-626 C341S): as the sequence (Q9Y3Z3 114-626 C522S) above, with C228S, S409C counted along it
Assay: NMR-based dNTPase assay, activation by GTP
Measure Name: pEC50
Remember the convention: pEC50 equals -log10 of concentration in molar.

For reference, reported pEC50 for Nc1nc2c(ncn2[C@@H]2O[C@H](COP(=O)(O)OP(=O)(O)OP(=O)(O)O)[C@@H](O)[C@H]2O)c(=O)[nH]1 [GTP] stands at 4.35

Origin of measurements: paper PMC6067006
